assay: NCI Yeast Anticancer Drug Screen. Data for the cln2 rad14 strain (AID 165);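 also: 0% = growth equal to vehicle treated cultures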; settings: S. cerevisiae cln2 rad14 strain, at 5.0 µM (retest, dose inferred, filed as 0.5), stronger effect = higher value
About 79,000 compounds went through this panel and 15% of them were active in at least one assay; those are over-represented in the sample as a whole.
Below, each entry is listed alongside its reported growth inhibition.
The figure you give is taken to be in %; do not add the unit.

Check out these entries, answers already filled in.
COc1cc(C(=O)NC(CCC(=O)O)C(=O)O)ccc1N(C)Cc1cnc2nc(N)nc(N)c2n1 (stereo not given) :: 2
CC([N+](=O)[O-])C1(O)C(=O)c2cccc3cccc1c23 (stereo not given) :: 4
CC(=O)c1c(C)n(C)c2c1nnc1ccccc12 :: 9
O=C(/C=C/C=C/c1ccccc1)c1ccco1 :: 4

Continue with the next compound.
// growth inhibition value for CC(C)(C)c1ccc(CN2CCN(C(c3ccccc3)c3ccc(Cl)cc3)CC2)cc1 (stereo not given) : -4

----------
assay: NCI Yeast Anticancer Drug Screen. Data for the sgs1 mgt1 strain (AID 161);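 also: 0% = growth of cultures given vehicle only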; settings: S. cerevisiae sgs1 mgt1 strain, at 5.0 µM (retest, dose inferred, filed as 0.5), stronger effect = higher value
This is part of a sample that, as a whole, favours compounds with a hit. Of some 79,000 tested, about 15% had one in any assay.
Param threshold (20%) applies to growth inhibition; output rule met when value >= threshold, rule not met when value < threshold.

Solved entries (count: 2):
CC(CN(CC(=O)O)CC(=O)O)N(CC(=O)O)CC(=O)O.[Cl][Pd][Cl] (stereo not drawn) :: rule met
Cc1cc2c(cc1C)[n+](=O)c(C(=O)C/C(=N/NC(=O)CC#N)C(=O)Nc1ccccc1C(F)(F)F)c(C)n2[O-] :: rule met

Req: Given the entry O=c1cccccc1[O-].O=c1cccccc1[O-].O=c1cccccc1[O-].[Sm+3] , answer whether its growth inhibition meets or surpasses 20%.
Resp: rule met

Req: In plain terms: is recorded growth inhibition at least 20% for O=[N+]([O-])c1cc(I)c(O)c(/C=N/NS(=O)(=O)c2ccc(Cl)cc2)c1 ?
Resp: rule not met

Req: For this molecule, is measured growth inhibition 20% or higher? Cc1cccc(C[P+](c2ccccc2)(c2ccccc2)c2ccccc2)c1
Resp: rule met

Req: Hi team, for N=C(/C(=C/c1ccccc1)c1ccccc1)c1ccccc1 , is the recorded growth inhibition at or above 20%?
Resp: rule not met

Req: hey, is growth inhibition for this one >= 20%? Cc1ccc([PH+](CC[PH+](c2ccccc2)c2ccccc2)c2ccc(C)cc2)cc1.Cc1ccc([PH+](CC[PH+](c2ccccc2)c2ccccc2)c2ccc(C)cc2)cc1.[Pt]
Resp: rule met

Req: Could you verify whether the entry CCOC(=O)[C@]12CCC[C@@]1(O)NC(=O)c1cnccc12 shows growth inhibition of no less than 20%?
Resp: rule not met

Req: Check this molecule for growth inhibition at or above 20%: COC(=O)c1cc(=O)n(-c2ccccc2OC)c(SC)n1
Resp: rule not met

Req: Is the recorded value of growth inhibition equal to or greater than 20% for this molecule? CN(C)CCCNc1ccc(O)c2sc3ccccc3c(=O)c12
Resp: rule not met

Req: growth inhibition >= 20% for Cc1c2c(c(C)c3ccncc13)S(=O)(=O)c1ccccc1-2 ?
Resp: rule met

Req: Item O=C1OC(CCCl)(c2ccccc2)CC1CN1CCOCC1 (stereo not drawn) with growth inhibition of 20% or above?
Resp: rule not met

Req: Determine whether this molecule has growth inhibition no lower than 20%: CC(=O)ON=C1C=CC(=C(C#N)c2ccccc2)C=C1
Resp: rule met

Req: Please tell me: is the molecule CC1CC[N-]CC1.CC1CC[N-]CC1.CC1CC[N-]CC1.CC1CC[N-]CC1.CS(C)=O.CS(C)=O.[Cl-].[Cl-].[Cl-].[Cl-].[Pt+4].[Rh+3] at or over 20% in terms of growth inhibition?
Resp: rule met

Req: Exam item: decide whether the reported growth inhibition for NC(=S)N/N=C1/C(=O)c2cccc3cccc1c23 is at least 20%.
Resp: rule not met

Req: Is growth inhibition at least 20%? Consider COc1ccc(-c2cscc2N)cc1
Resp: rule not met

Req: Would you say N#Cc1c(Cl)nc2ccccc2c1N=[N+]=[N-] shows growth inhibition at minimum 20%?
Resp: rule not met

Req: Say whether CSc1ncnc2ncn(C3OC(CO)C(O)C3O)c12 (stereo not drawn) shows growth inhibition of 20% or more.
Resp: rule not met

----------
assay: NCI Yeast Anticancer Drug Screen. Data for the mec2-1 strain (AID 157); conditions: S. cerevisiae mec2-1 strain, at 50.0 µM (retest, dose inferred, filed as 5.0)
This is part of a sample that, as a whole, favours compounds with a hit. Of some 79,000 tested, about 15% had one in any assay. Calls of active or inactive are those of the source. No stated cut-off is given here; in the data, active means growth inhibition above about 70%; inactive means the rest.
Choose the fitting class; nothing outside active, inactive is accepted.

Here's what some known entries look like.
COc1cc(C(=O)NC(CCC(=O)O)C(=O)O)ccc1N(C)Cc1cnc2nc(N)nc(N)c2n1 (stereo not given) :: active
OC1(CCc2ccccc2)COC(C(F)(F)F)(C(F)(F)F)C1 (stereo not given) :: inactive
N#Cc1c(SCc2ccc(Cl)cc2)nsc1Nc1ccc(Cl)cc1 :: active
CN(C)COC(=S)SCN(C)C :: active
CCC(=O)OCN1C(=O)C=CC1=O :: active

Proceed to the following item.
Req: For COC(=O)c1cccc2cccc(C(=O)Nc3ccc(Cl)cc3)c12 , which call appears in the assay record?
Resp: active

----------
experiment: NCI Yeast Anticancer Drug Screen. Data for the mec2-1 strain (AID 157); settings: S. cerevisiae mec2-1 strain, at 50.0 µM (retest, dose inferred, filed as 5.0), stronger effect = higher value
About 79,000 compounds went through this panel and 15% of them were active in at least one assay; those are over-represented in the sample as a whole.
// reported growth inhibition for each item listed
Lab book: enter the figure in %, no units written.

Past entries and their recorded results:
CSc1ncnc2ncn(C3OC(CO)C(O)C3O)c12 (centres undefined) :: -2
O=C(CN(Cc1ccccc1)Cc1ccccc1)c1ccccc1 :: 34
CC(C)C(=O)NNc1ccccc1 :: 57
c1ccc(N/N=C(/CC/C(=N\Nc2ccccc2)c2ccccc2)c2ccccc2)cc1 :: 90
COc1cc(C2=N/C(=C\c3ccccc3O)C(=O)O2)cc(OC)c1OC :: -21
CCC(=O)/C(=C\I)c1ccccc1 :: -6
CN(C)/N=C(/CC(O)(C(F)(F)F)C(F)(F)F)c1ccc([N+](=O)[O-])cc1 :: 11
N#CC1Oc2ccccc2N1C(=O)c1ccccc1 (centres undefined) :: 7

The compound identified as CN(C)CCC(/C=C/c1ccccc1)=N\Nc1ccc(Cl)c(Cl)c1 registered its growth inhibition at 98

Short answer for O[C@H]1[C@H]2c3cc4c(cc3CN3CCC(=C[C@@H]1O)[C@H]23)OCO4 : growth inhibition was 99

Briefly, growth inhibition measured for O=C(C(=O)c1ccncc1)c1ccccc1 : -55

growth inhibition for NC(CCC(=O)NC(CS(=O)(=O)O)C(=O)O)C(=O)O (centres undefined) is 2

Lookup result for COc1ccc(/C=c2\sc3nnc(CCC(=O)Nc4cccc(C(F)(F)F)c4)n3c2=O)cc1 ; measured growth inhibition: 43

// O=C1c2ccccc2C(=O)c2sccc21 : growth inhibition value = 51

Briefly, growth inhibition measured for N#[N+]c1ccc2c(S(=O)(=O)Oc3ccc(C(=O)c4ccccc4)c(OS(=O)(=O)c4cccc5c([O-])c([N+]#N)ccc45)c3)cccc2c1[O-] : 33

Documented growth inhibition of Cc1ccc(/C=C/C(=O)c2cc(CN(C)C)c(O)c(CN(C)C)c2)cc1 : 25

Short answer for CSc1nc(=S)c2[nH]c(C)nc2[nH]1 : growth inhibition was -3

What the record says about NNC(=S)NN/C=C(\C=Nc1ccccc1)[N+](=O)[O-] : growth inhibition is 70

Recorded result, CS(=O)(=O)OCCCN(CCCOS(C)(=O)=O)c1ccc(C=Nc2ccc(-c3csc(COc4ccc(Br)cc4Br)n3)cc2)cc1 , growth inhibition: 83

Entry Nc1ccccc1SCc1csc(-c2ccc(Cl)cc2)n1 — recorded growth inhibition = 98

Input O=C1CCCc2cc3c(nc21)C(=O)CCC3 . Output growth inhibition: 0

Measured growth inhibition of NC(=S)N/N=C\c1nccc2c(C(F)(F)C(F)(F)C(F)(F)F)cccc12 : 69

Reported growth inhibition of CN(C)c1cc2nc3ccccc3nc2cc1O : 53

Note to self: growth inhibition recorded for Cc1ccc(NC(=O)c2cc3ccccc3c(N=Nc3cc(S(=O)(=O)O)ccc3O)c2O)c(C)c1 was 84

compound CCCc1cc(=O)oc2c3c(c4c(c12)OC(C)(C)C=C4)O[C@@H](C)[C@H](C)[C@H]3O , growth inhibition observed: 94

# growth inhibition (compound: O=c1cc(CI)oc2ccccc12 ) is 99

Reported growth inhibition of COc1ccc2nc3cc(Cl)ccc3c(NCCNc3c4ccc(Cl)cc4nc4ccc(OC)cc34)c2c1 : 97
